Below: a set of entries, each annotated with reported PBM binding z-score.
Tested on: RARa homodimer (NR concentration 270 nM)
EXPERIMENTAL_PROTOCOL: PBM binding z-score (relative to random genomic background probes); higher = stronger binding; sequences stand for … in GC…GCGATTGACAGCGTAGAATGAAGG
EXPERIMENTAL_ENDPOINT: PBM binding z-score

MACROMOLECULE_SEQUENCE: CAAACTAGGTCAAGTTCAAAGTCGGTTTGTGCCA
RECORDED_MEASUREMENT: 1.55
//
MACROMOLECULE_SEQUENCE: CATTACGGGTCAAGGTTATAGCACGGGTGGTACG
RECORDED_MEASUREMENT: 1.58
//
MACROMOLECULE_SEQUENCE: TAATATAGGTAAAGGTGAAAGTCGAACGATATGA
RECORDED_MEASUREMENT: 1.92
//
MACROMOLECULE_SEQUENCE: TAGCCTAGGTCATGCGGGCCAGTAAAGTGTCGGC
RECORDED_MEASUREMENT: -0.385
//
MACROMOLECULE_SEQUENCE: CCTAGTTGGTCTGGAGGTCACACACCGGATATGA
RECORDED_MEASUREMENT: 2.41
//
MACROMOLECULE_SEQUENCE: AGTCAAAGTTCACTAGGTAGCGTAAGATTCAGCT
RECORDED_MEASUREMENT: 1.33
//
MACROMOLECULE_SEQUENCE: GTACCGAGGTGAATAGGTCGTTGATGAGTAGGCG
RECORDED_MEASUREMENT: -0.153
//
MACROMOLECULE_SEQUENCE: ACTAGCAGGCTAAGTTTGGGTCACTCAAACAAAG
RECORDED_MEASUREMENT: -0.552
//
MACROMOLECULE_SEQUENCE: GATACAGGGTCAAGGCGAGAGTACGCGTATTGAT
RECORDED_MEASUREMENT: 1.14
//
MACROMOLECULE_SEQUENCE: CGTCCAAGGTCAGAGAGGTTAGTGAATGCCGAGT
RECORDED_MEASUREMENT: 0.223
//
MACROMOLECULE_SEQUENCE: TCTTGTAGATCAAAGGTTAAGGAAGCCGAAGCCT
RECORDED_MEASUREMENT: 0.593
//
MACROMOLECULE_SEQUENCE: CAAACTAGGGCACGAAAGGTCAAAGTCGAATGAC
RECORDED_MEASUREMENT: 1.46
